Source: patent US6413935

target.entity: T1, mouse class II IA^k, purified from CH12 cells (mouse), P01910
T1 chain 1: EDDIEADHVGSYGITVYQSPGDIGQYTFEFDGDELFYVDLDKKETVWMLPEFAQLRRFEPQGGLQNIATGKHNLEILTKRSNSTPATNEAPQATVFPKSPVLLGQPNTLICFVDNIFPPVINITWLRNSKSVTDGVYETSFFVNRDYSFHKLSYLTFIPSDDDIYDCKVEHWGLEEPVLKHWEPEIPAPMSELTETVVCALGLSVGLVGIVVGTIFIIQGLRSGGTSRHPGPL
T1 chain 2: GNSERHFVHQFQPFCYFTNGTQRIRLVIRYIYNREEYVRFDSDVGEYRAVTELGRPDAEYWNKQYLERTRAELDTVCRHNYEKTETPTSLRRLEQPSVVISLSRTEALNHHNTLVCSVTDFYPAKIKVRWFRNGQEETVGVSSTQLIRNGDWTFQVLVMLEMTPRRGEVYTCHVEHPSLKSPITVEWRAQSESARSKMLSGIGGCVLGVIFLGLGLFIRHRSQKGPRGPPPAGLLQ
test.summary: 125I-peptide inhibition, purified class II
Non-standard residues stand in square brackets, D forms with d. No end group written: not given here. Cha = N[C@@H](CC1CCCCC1)C(=O)O
endpoint: pIC50
Bear in mind: pIC50 is minus log10 of a mol/L concentration; give just that figure.

Qu. What value of pIC50 has been recorded for this entry: ISQAVHAAHAEINE (modifications not checked) [Ova 323-336]
Ans. 6.00

Qu. Any idea what pIC50 was measured for [dA]A[Cha]AAAATLKAA[dA] [760.57] ?
Ans. 5.28

Now consider the entry below.
Qu. Reported pIC50, binder NTDGSTDYGILQINSR (modifications not checked) [HEL46-61] : ____
Ans. 7.70
